Data origin, for the record: patent US7329651B2

# TARGET UNDER TEST: CB1 cannabinoid receptor (Rattus norvegicus)
# Construct: membranes were prepared from rat forebrain membranes; from tissue; host or cells: rat forebrain
# Sequence (P20272 whole entry): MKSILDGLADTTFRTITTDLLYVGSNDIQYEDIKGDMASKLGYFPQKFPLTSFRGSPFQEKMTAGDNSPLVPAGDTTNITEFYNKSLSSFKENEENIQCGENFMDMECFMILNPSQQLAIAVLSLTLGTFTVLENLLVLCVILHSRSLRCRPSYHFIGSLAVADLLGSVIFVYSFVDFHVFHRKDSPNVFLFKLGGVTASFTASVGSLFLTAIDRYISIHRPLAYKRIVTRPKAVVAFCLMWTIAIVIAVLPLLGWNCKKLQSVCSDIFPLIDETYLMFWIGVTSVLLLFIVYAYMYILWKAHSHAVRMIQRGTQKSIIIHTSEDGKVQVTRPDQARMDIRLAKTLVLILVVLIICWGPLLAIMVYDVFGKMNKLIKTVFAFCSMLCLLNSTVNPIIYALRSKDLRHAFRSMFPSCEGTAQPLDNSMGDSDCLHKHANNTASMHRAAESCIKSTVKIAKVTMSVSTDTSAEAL
# ASSAY OVERVIEW: CB1 receptor binding, [3H] CP-55,940 displacement, rat forebrain membranes
# MEASUREMENT CONTEXT: rat forebrain membranes, 0.8 nM [3H] CP-55,940; read-out: Ki(nM) CB1
Each record's Ki is compared with class A: < 2000 nM; class B: ≥ 2000 nM and < 10000 nM; class C: ≥ 10000 nM to give its class.

query: Tag the class for `CCOC(=O)C1=NN(c2cccc3ccccc23)C(C(=O)OCC)=NN1c1ccccc1`
result: class B

query: Tag the class for `CCOC(=O)C1=NN(c2ccccc2)C(C(=O)OCC)=NN1c1ccccc1`
result: class A

query: Tag the class for `CCOC(=O)C1=NN(c2ccc(Cl)cc2)C(C(=O)OCC)=NN1c1ccccc1`
result: class A
